- assay_overview: RAM signaling pathway blockade in yeast – S. cerevisiae, Pdr1DBD-CYC8 efflux-inhibited sensitized strain, primary screen (AID 1298);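 also: 0% = DMSO untreated cells without growth and 100% = 10 µM 1-NA-PP1 full growth; higher means more yeast growth rescued from 5-FOA killing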
- test_conditions: S. cerevisiae cbk1-as DSE1-URA3 strain, 5-FOA growth OD615, 2 d; at 50 µM; stronger effect = higher value
Answer each item with its documented RAM network inhibition.
Numbers only, in %.

The following molecules have reported results that may help.
# molecule, value_unit, RAM network inhibition
data = [
    ("O=C(c1ccco1)N1CCN(S(=O)(=O)c2cccc3nsnc23)CC1", "%", 5.06),
    ("Cc1nnc(NC(=O)c2oc3cc(C)c(C)cc3c2C)s1", "%", 5.7),
    ("Cc1ccccc1-c1nnc(SCC(=O)Nc2ccc(Cl)cc2)n1N", "%", 5.42),
]

Count: 8. Required value per item: RAM network inhibition.
1. COc1ccccc1C(=O)Nc1nnn(C)n1
2. Cc1cc(S(=O)(=O)N2CCN(Cc3ccc4c(c3)OCO4)CC2)cc(C)c1N1CCCC1=O
3. Cn1c(NC(=O)Cc2ccc(F)cc2)cc(=O)n(C)c1=O
4. CCOc1ccc(S(=O)(=O)N(C)c2ccc(OCC(=O)Nc3ccc4[nH]c(=O)[nH]c4c3)cc2)cc1
5. CC(C)=C1C2C=CC1C(C(=O)Nc1cc(C)ccc1C)C2C(=O)O (stereo unspecified)
6. CCC1(C)OC(=O)N2CCc3c(C)[nH]c4c(C)ccc(c34)C21C (stereo unspecified)
7. CCN(CC)C(=O)c1cn(CC)c(=O)c2cc(OC)c(OC)cc12
8. O=C(Nc1ccc(SC(F)F)cc1)C1=COCCO1

Response line:
1. 6.87
2. 0.73
3. 0.62
4. 7.12
5. 6.92
6. 1.06
7. 2.76
8. 5.17

* * *

- assay_overview: growth suppression of PTEN-deleted HCT116, pilot screen, cell-based, HCT116 clonal line, CellTiter-Glo (AID 824);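 also: 0% = 20 µM Hyamine control and 100% = vehicle cell control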
- test_conditions: 60 h, at 10 µM, stronger effect = lower value
Records with an inconclusive call do not appear. Calls of active or inactive are those of the source.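 How the source made its calls: active means viability at or below 27.92% in each of two runs, the all-compound median minus 4 SD; inconclusive means no clear call, values can overlap the other calls; inactive means the rest.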
readout_kind: viability

Count: 5. Required value per item: viability.
1. CCc1ccc(-c2nc(CSCC(=O)N3CCN(c4ncccn4)CC3)c(C)o2)cc1
2. O=C(O)c1ccc2c(c1)N(Cc1cccc(F)c1)C(=O)CS2
3. O=C(NC1(C(F)(F)F)Oc2ccccc2O1)N1CCCC1
4. CCOC(=O)CN1CC23C=CC(O2)C(C(=O)NCc2ccccc2OC)C3C1=O (stereo unspecified)
5. CCc1nnc(NC(=O)C2CCCCC2)s1

Response line:
52.6% (inactive)
102% (inactive)
81.3% (inactive)
102% (inactive)
106% (inactive)

Count: 2. Required value per item: viability.
1. CCCOc1ccc(/C(O)=C2/C(=O)C(=O)N(CCN(C)C)C2c2ccco2)cc1 (stereo unspecified)
2. CCCc1cc(C(=O)N2CCN(C(c3ccccc3)c3ccccc3)CC2)no1

Response line:
99.6% (inactive)
90.9% (inactive)

Count: 4. Required value per item: viability.
1. CCOC(=O)c1c(NC(=O)OC)sc(C(=O)N(CC)CC)c1C
2. COc1ccc(C2C(C(=O)N3CCCCC3)CCC(=O)N2c2cc(OC)c(OC)c(OC)c2)cc1 (stereo unspecified)
3. Cn1c(CCNC(=O)C(C)(C)C)nc2ccccc21
4. O=C(CSc1nc2ccccc2[nH]1)Nc1ccc(F)cc1

Response line:
93% (inactive)
89% (inactive)
98.5% (inactive)
90.2% (inactive)

* * *

- assay_overview: growth inhibitors of H69AR lung tumor, primary screen, human, duplicate replicates (AID 580);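 also: 100% = mean luminescence of untreated wells and 0% = no signal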
- test_conditions: H69AR lung tumor cells viability, ATP luminescence, 72 h; at 10 µM; stronger effect = lower value
readout_kind: viability (%)
Answers are plain numbers, in %.

# compound, value_unit, observed_measurement
rows = [
    ("CCOC(=O)Cc1nnc2c(Nc3ccc(C)cc3)nc3nonc3n12", "%", 94),
]

Count: 3. Required value per item: viability.
1. CC(=O)[C@@]1(O)CC[C@H]2[C@@H]3CCC4=CC(=O)CC[C@]4(C)[C@H]3[C@@H](O)C[C@@]21C
2. COc1ccc(C2c3c(-c4ccccc4O)n[nH]c3C(=O)N2CCc2ccc(OC)c(OC)c2)cc1 (stereo not given)
3. COc1ccc(OC)c(C(=O)CSc2nnc(-c3ccc(OC)c(OC)c3)o2)c1

Response line:
1: 99.5; 2: 68.5; 3: 74.5

* * *

Answer each item with its documented viability.
- assay_overview: HUVEC growth inhibition – cell-based, human, primary screen (AID 575);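 also: 100% = median of untreated cell wells with 0.1% DMSO on each plate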
- test_conditions: HUVEC proliferation, CellTiter-Glo luminescence, 72 h; at 10 µM; stronger effect = lower value
The source made the active and inactive calls.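 How the source made its calls: active means viability at or below 30% in both replicate assays; inconclusive means viability at or below 30% in just one of the two assays; inactive means the rest.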

The following compounds have reported results that may help.
# compound, viability
measured = [
    ("Cc1noc(C)c1S(=O)(=O)N1CCC(C(=O)N2CCN(Cc3ccc4c(c3)OCO4)CC2)CC1", "99% (inactive)"),
    ("CCOC(=O)c1ccc(NC2OC(=O)c3ccccc32)cc1 (stereo not drawn)", "77.4% (inactive)"),
    ("OCCNCCCCOc1ccccc1F", "111% (inactive)"),
    ("CC(=O)Nc1ccc(S(=O)(=O)Nc2nc3ccccc3nc2N2CCCC2)cc1", "93.7% (inactive)"),
    ("Cc1cccc(N2CCN(C(=O)Cn3ccc4ccccc4c3=O)CC2)c1C", "94.1% (inactive)"),
]

Count: 4. Required value per item: viability.
1. CN(C1CCS(=O)(=O)C1)S(=O)(=O)c1cccc2nsnc12 (stereo not drawn)
2. O=C(Nc1nc(-c2ccccc2)cs1)C1CCCCN1S(=O)(=O)c1ccccc1 (stereo not drawn)
3. CCOC(=O)CSc1nnc(CCc2nc3ccccc3[nH]2)n1C
4. CC(C)CCNC(=O)[C@H](CC(C)C)NC(=O)[C@H]1O[C@@H]1C(=O)O

Response line:
1: 107% (inactive); 2: 71.5% (inactive); 3: 87.5% (inactive); 4: 95.9% (inactive)

* * *

Answer each item with its documented RAM network inhibition.
- assay_overview: RAM signaling pathway blockade in yeast – S. cerevisiae, Pdr1DBD-CYC8 efflux-inhibited sensitized strain, primary screen (AID 1298);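 also: 0% = DMSO untreated cells without growth and 100% = 10 µM 1-NA-PP1 full growth; higher means more yeast growth rescued from 5-FOA killing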
- test_conditions: S. cerevisiae cbk1-as DSE1-URA3 strain, 5-FOA growth OD615, 2 d; at 50 µM; stronger effect = higher value
Numbers only, in %.

The following molecules have reported results that may help.
# molecule, value_unit, RAM network inhibition
records = [
    ("COc1ccc(CCNC(=O)c2cnccn2)cc1", "%", 2.5),
    ("CCn1cc(C(=O)N2CCN(c3ccccn3)CC2)c2cc(OC)c(OC)cc2c1=O", "%", 6.02),
    ("O=C(NC1CCCCCC1)C1CCN(S(=O)(=O)c2cccc3cccnc23)CC1", "%", 1.35),
    ("CC(=O)N1CCc2c(sc(NC(=O)C3CC3)c2-c2nc3ccccc3s2)C1", "%", 4.93),
    ("CC(=O)N1CCN(c2ccc(NCc3ccc(F)cc3)cc2)CC1", "%", 2.34),
    ("Cc1ccc(C2CC(c3ccc(F)cc3)Nc3nc(N)nn32)cc1 (stereo unspecified)", "%", 2.86),
    ("Cc1onc(-c2ccccc2Cl)c1C(=O)N1CCN(c2cccc(Cl)c2)CC1", "%", 10.4),
    ("CCN1CCN(CCCNC(=O)c2ccc3c(c2)NC(=O)c2ccccc2S3)CC1", "%", 5.84),
]

Count: 3. Required value per item: RAM network inhibition.
1. CCCCNC(=O)CS(=O)Cc1nc(-c2cccs2)oc1C (stereo unspecified)
2. COc1ccccc1C1CC(c2ccc(Cl)cc2Cl)Nc2nc(N)nn21 (stereo unspecified)
3. Cc1cc(C)cc(N(CC(=O)NCc2ccco2)S(=O)(=O)c2c(C)noc2C)c1

Response line:
[0.54, 7.09, 5.53]

* * *

Answer each item with its documented viability.
- assay_overview: growth suppression of PTEN-deleted HCT116, pilot screen, cell-based, HCT116 clonal line, CellTiter-Glo (AID 824);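 also: 0% = 20 µM Hyamine control and 100% = vehicle cell control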
- test_conditions: 60 h, at 10 µM, stronger effect = lower value
Results filed as inconclusive are left out.
One number for each entry, in %.

# compound, observed_measurement
data = [
    ("CCc1ccc(C2CC(c3ccccc3C)n3nc(N)nc3N2)cc1 (stereo not drawn)", 79.6),
    ("Cc1cc2ncn(CC(O)COC3CCCCC3)c2cc1C (stereo not drawn)", 90.3),
    ("CCN1CCN(CCNC(=O)C2CCCN(Cc3nc(-c4cccc(Cl)c4)oc3C)C2)CC1 (stereo not drawn)", 35),
    ("CCOc1ccc(C2CC(c3ccc(F)cc3)Nc3nc(N)nn32)cc1 (stereo not drawn)", 101),
    ("CCOC(=O)N1CCN(Cc2nc3c(c(=O)n(C)c(=O)n3C)n2CCC(C)C)CC1", 99.9),
]

Count: 4. Required value per item: viability.
1. CC(=O)NCCc1nc2ccccc2n1Cc1ccccc1
2. O=C1NCCCC1C(=O)NCCN1C(=O)CCC1=O (stereo not drawn)
3. COc1ccc(N2CSC3=C(C#N)C(c4cccc(OC)c4OC)CC(=O)N3C2)cc1 (stereo not drawn)
4. NCCCC(=O)N1c2ccccc2Sc2ccccc21

Response line:
1. 98.8
2. 96
3. 92.6
4. 73.9

Count: 8. Required value per item: viability.
1. CCC(SCC(=O)OC)C(=O)Nc1nnc(C(C)C)s1 (stereo not drawn)
2. Cn1c(NC(=O)c2ccc(Cl)cc2Cl)cc(=O)n(C)c1=O
3. CC(=O)c1cc(CN2C(=O)CCC2=O)cs1
4. COc1ccc(OC)c2c1sc(=NC(=O)C(C)C)n2C
5. O=C(Cn1c(=O)oc2cc(S(=O)(=O)N3CCCC3)ccc21)NCc1ccccn1
6. CCC(C)[C@@H](C(=O)Nc1ccc(OC)c(OC)c1)N1Cc2ccccc2C1=O (stereo partly drawn)
7. C/C(CC(O)c1ccc2ccccc2n1)=N/O (stereo not drawn)
8. COc1ccc(OCC(=O)NC2CC(C)(C)NC(C)(C)C2)cc1

Response line:
[98.1, 90.8, 95.6, 74.1, 104, 82.8, 103, 105]

Count: 5. Required value per item: viability.
1. Cc1ccc(C2CC(c3ccco3)n3nc(N)nc3N2)cc1 (stereo not drawn)
2. CCC(C#CCN1CCCCC1)(CC)OCCC#N
3. Cc1cccc(Cn2c(N3CCCCC3C)nc3c2c(=O)[nH]c(=O)n3C)c1 (stereo not drawn)
4. O=C(CCS(=O)(=O)c1cccc2nsnc12)N1CCN(C(=O)c2ccco2)CC1
5. O=C(CCSCCC(=O)NCc1ccco1)NCc1ccco1

Response line:
1. 99.8
2. 97.6
3. 78
4. 102
5. 96

Prompt line: Please give the documented viability of Cc1oc(-c2ccc(Cl)cc2)nc1CN1CCCC(C(=O)N2CCN(C(=O)c3ccco3)CC2)C1 (stereo not drawn)
Response line: 54.6
